molecular target: Histamine H3 receptor (Homo sapiens, UniProt Q9Y5N1); test: Binding affinity to human recombinant histamine H3 receptor
Sequence (Q9Y5N1 whole entry): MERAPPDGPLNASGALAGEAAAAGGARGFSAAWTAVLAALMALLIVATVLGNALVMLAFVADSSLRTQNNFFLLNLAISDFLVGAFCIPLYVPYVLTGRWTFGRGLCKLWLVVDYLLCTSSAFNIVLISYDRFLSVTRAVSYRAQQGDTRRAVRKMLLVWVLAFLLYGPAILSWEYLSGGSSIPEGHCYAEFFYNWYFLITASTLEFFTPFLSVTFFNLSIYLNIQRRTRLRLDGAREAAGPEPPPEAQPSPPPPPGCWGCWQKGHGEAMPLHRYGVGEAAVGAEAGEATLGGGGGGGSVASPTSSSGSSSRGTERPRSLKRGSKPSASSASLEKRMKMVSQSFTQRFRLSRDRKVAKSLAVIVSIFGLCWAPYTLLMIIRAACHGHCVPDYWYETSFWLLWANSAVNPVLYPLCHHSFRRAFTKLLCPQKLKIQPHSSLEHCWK
pIC50: −log10 of the molar value.
Measure Name: pIC50

smi=C[C@H]1Cc2c([nH]c3cc(Cl)c(F)cc23)[C@@]2(N1)C(=O)Nc1ccc(Cl)cc12 result="< 5.00"

* * *

biological target: Amine oxidase [flavin-containing] A (Homo sapiens, UniProt P21397); test: Binding affinity to human recombinant MAOM
Sequence (P21397 whole entry): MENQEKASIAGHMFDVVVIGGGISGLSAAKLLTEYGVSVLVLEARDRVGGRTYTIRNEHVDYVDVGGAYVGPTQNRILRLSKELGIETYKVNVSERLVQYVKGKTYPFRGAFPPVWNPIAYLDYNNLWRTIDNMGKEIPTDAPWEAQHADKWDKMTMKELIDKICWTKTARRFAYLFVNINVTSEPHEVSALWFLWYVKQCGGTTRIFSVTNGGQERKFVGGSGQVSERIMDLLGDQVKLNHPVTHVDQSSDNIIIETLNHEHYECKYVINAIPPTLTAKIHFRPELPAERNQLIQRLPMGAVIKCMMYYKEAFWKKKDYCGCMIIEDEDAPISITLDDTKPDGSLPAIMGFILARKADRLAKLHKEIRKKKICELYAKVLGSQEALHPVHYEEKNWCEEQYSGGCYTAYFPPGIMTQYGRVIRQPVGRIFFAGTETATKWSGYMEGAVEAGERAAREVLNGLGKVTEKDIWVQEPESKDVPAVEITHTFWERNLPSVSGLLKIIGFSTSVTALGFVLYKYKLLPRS
Measure Name: IC50

compound="C[C@H]1Cc2c([nH]c3cc(Cl)c(F)cc23)[C@@]2(N1)C(=O)Nc1ccc(Cl)cc12 [CIPARGAMIN]" measure_name=IC50 result="> 10 µM"

* * *

molecular target: Prostaglandin G/H synthase 1 (Homo sapiens, UniProt P23219); experiment: Binding affinity to human recombinant COX1
Sequence (P23219 whole entry): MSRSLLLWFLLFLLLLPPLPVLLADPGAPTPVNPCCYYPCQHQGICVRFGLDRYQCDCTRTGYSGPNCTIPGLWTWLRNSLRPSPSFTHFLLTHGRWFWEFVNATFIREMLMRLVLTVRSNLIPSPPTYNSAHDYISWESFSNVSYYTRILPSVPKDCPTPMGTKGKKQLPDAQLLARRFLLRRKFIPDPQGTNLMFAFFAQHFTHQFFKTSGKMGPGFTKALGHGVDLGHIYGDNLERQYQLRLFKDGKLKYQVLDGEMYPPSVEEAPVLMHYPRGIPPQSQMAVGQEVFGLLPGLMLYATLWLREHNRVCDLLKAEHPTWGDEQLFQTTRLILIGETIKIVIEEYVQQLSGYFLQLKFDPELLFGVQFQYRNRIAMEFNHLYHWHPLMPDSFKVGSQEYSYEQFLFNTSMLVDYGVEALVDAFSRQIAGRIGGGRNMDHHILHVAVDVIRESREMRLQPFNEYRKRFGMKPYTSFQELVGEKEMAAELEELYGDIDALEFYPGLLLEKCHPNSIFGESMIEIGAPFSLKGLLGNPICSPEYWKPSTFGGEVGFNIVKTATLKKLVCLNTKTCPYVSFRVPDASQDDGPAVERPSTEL
pIC50: −log10 of the molar value.
Measure Name: pIC50

smi=C[C@H]1Cc2c([nH]c3cc(Cl)c(F)cc23)[C@@]2(N1)C(=O)Nc1ccc(Cl)cc12 test_target="Prostaglandin G/H synthase 1 (Homo sapiens, UniProt P23219)" result="< 4.52"

* * *

experiment: Partition coefficient, log P of the compound at pH 7.4; type: physicochemical; details: octanol/water
Measure Name: logD

smi=C[C@H]1Cc2c([nH]c3cc(Cl)c(F)cc23)[C@@]2(N1)C(=O)Nc1ccc(Cl)cc12 readout_number=4.7

* * *

target: B2 bradykinin receptor (Homo sapiens, UniProt P30411); experiment: Binding affinity to human recombinant bradykinin B2 receptor
Sequence (P30411 whole entry): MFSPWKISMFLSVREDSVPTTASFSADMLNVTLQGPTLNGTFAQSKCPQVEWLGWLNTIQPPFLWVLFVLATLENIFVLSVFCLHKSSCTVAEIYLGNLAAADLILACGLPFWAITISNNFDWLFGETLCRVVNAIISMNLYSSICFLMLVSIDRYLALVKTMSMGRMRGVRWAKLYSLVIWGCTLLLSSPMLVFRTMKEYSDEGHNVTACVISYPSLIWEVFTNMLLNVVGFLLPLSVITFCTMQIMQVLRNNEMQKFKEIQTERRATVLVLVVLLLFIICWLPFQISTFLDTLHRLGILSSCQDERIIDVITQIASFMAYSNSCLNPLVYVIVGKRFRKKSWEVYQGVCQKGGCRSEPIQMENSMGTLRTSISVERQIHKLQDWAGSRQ
pIC50: −log10 of the molar value.
Measure Name: pIC50

compound="C[C@H]1Cc2c([nH]c3cc(Cl)c(F)cc23)[C@@]2(N1)C(=O)Nc1ccc(Cl)cc12 [CIPARGAMIN]" test_target="B2 bradykinin receptor (Homo sapiens, UniProt P30411)" result="< 4.52"

* * *

test system: Plasmodium falciparum; experiment: microbe, parasite or virus in culture; details: Dd2, 72 h
Measure Name: IC50 (nM)

smi=C[C@H]1Cc2c([nH]c3cc(Cl)c(F)cc23)[C@@]2(N1)C(=O)Nc1ccc(Cl)cc12 measure_name=IC50 readout_number=4.1

* * *

assay: Oral bioavailability in CD1 mouse at 24.6 mg/kg; format: ADME, organism-based; conditions: in vivo
Measure Name: bioavailability (%)

smi=C[C@H]1Cc2c([nH]c3cc(Cl)c(F)cc23)[C@@]2(N1)C(=O)Nc1ccc(Cl)cc12 measure_name=bioavailability readout_number=100

* * *

experiment: Volume of distribution at steady state in Wistar rat at 5 mg/kg, iv; assay type: ADME, organism-based; set-up: dose 5 mg/kg, route intravenous; settings: in vivo, read-out: Vdss
Measure Name: Vd (L/kg)

smi=C[C@H]1Cc2c([nH]c3cc(Cl)c(F)cc23)[C@@]2(N1)C(=O)Nc1ccc(Cl)cc12 readout_number=3.04

* * *

molecular target: Endothelin receptor type B (Homo sapiens, UniProt P24530); assay: Binding affinity to human recombinant endothelin B receptor
Sequence (P24530 whole entry): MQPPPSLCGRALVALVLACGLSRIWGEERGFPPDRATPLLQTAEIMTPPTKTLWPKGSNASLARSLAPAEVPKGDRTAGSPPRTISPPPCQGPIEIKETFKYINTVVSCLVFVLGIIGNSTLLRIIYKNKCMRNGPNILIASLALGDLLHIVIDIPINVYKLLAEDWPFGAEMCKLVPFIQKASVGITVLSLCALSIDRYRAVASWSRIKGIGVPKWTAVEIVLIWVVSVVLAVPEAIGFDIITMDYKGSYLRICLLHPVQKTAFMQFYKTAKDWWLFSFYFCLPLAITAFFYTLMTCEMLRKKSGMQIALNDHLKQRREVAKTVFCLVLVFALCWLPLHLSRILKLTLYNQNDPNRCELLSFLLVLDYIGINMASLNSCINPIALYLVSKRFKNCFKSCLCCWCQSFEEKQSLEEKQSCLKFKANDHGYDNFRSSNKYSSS
pIC50: −log10 of the molar value.
Measure Name: pIC50

molecule="C[C@H]1Cc2c([nH]c3cc(Cl)c(F)cc23)[C@@]2(N1)C(=O)Nc1ccc(Cl)cc12 [CIPARGAMIN]" result="< 4.52"

* * *

assay: Tmax in Wistar rat at 23.7 mg/kg, po; format: ADME, organism-based; design: dose 23.7 mg/kg, route oral; conditions: in vivo
Measure Name: Tmax (h)

molecule="C[C@H]1Cc2c([nH]c3cc(Cl)c(F)cc23)[C@@]2(N1)C(=O)Nc1ccc(Cl)cc12 [CIPARGAMIN]" measure_name=Tmax readout_number=8

Reference source for all entries: ChEMBL document CHEMBL1240532
